biological target: BACE (Homo sapiens (Human), UniProt P56817); experiment: In vitro BACE cell-based assay (Aβ40 in conditioned medium, sandwich ELISA)
Sequence (P56817 46-501, species assumed): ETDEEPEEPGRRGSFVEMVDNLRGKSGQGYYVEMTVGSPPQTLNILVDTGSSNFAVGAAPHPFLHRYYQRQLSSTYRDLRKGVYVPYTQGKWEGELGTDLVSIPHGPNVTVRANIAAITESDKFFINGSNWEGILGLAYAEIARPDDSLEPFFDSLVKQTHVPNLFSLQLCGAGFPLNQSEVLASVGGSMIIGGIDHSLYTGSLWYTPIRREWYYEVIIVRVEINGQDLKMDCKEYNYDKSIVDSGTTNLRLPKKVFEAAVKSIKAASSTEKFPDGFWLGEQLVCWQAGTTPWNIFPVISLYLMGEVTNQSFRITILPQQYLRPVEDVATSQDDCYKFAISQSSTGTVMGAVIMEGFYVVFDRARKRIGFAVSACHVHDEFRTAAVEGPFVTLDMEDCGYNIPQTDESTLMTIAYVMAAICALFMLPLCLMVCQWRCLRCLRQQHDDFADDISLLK
Structures can show the parent of a compound that is named as a salt.
measurement-kind: IC50 (µM)
Answers are plain numbers, in µM.

compound	IC50, µM
Cc1cc(NC(=O)c2ncc(C#N)cc2Cl)cc([C@@]2(C(F)F)N=C(N)O[C@@H]3C[C@@H]32)c1F	0.0158
COc1cnc2c(Nc3ccc(F)c([C@]4(CF)N=C(N)O[C@H]5C[C@H]54)c3F)nccc2n1	1.46
CC#CCOc1cnc(C(=O)Nc2ccc(Cl)c([C@@]3(C(F)F)N=C(N)O[C@@H]4C[C@@H]43)c2)cn1	0.0043
COc1cnc2c(Nc3ccc(F)c([C@@]4(CF)N=C(N)O[C@@H]5C[C@@H]54)c3)ncc(F)c2c1	0.0982
NC1=N[C@@](c2cc(NC(=O)c3coc(C(F)F)n3)ccc2F)(C(F)F)[C@H]2C[C@H]2O1 [Example 150, trifluoroacetate]	0.0182
NC1=N[C@](CF)(c2cc(NC(=O)c3ccc(Cl)cn3)ccc2Cl)[C@H]2C[C@H]2O1	0.0122
N#Cc1cnc2c(Nc3ccc(F)c([C@@]4(CF)N=C(N)O[C@@H]5C[C@@H]54)c3)ncc(F)c2c1	0.0546
N#Cc1cnc2c(Nc3cc(F)c(F)c([C@@]4(C(F)F)N=C(N)O[C@@H]5C[C@@H]54)c3)ncc(F)c2c1	0.524

// batch mode: one IC50 value per listed entry
1. NC1=N[C@@](c2cc(NC(=O)[C@H]3CCCO3)ccc2F)(C(F)F)[C@H]2C[C@H]2O1 (mixture of isomers)
2. N#Cc1ccc(C(=O)Nc2cnc(F)c([C@@]3(CF)N=C(N)O[C@@H]4C[C@@H]43)c2)nc1

## Output
1. 1.98
2. 0.0335

* * *

molecular target: Beta Secretase enzyme (BACE) (Homo sapiens (Human), UniProt P56817); assay: In vitro enzymatic BACE FRET assay; type: biochemical; conditions: read-out: BACE1 Enzyme assay IC50
Sequence (P56817 46-501): as the sequence (P56817 46-501, species assumed) above
measurement-kind: IC50 (nM)
Answers are plain numbers, in nM.

Sample records with IC50:
molecule	unit-spec	IC50
N#Cc1cnc(C(=O)Nc2ccc(F)c([C@@]3(C(F)F)N=C(N)O[C@@H]4C[C@@H]43)c2)c(F)c1 [Example 388]	nM	35.2
N#Cc1cnc2c(Nc3ccc(Cl)c([C@]4(C(F)F)N=C(N)O[C@H]5C[C@H]54)c3)ncc(F)c2c1 [Example 349]	nM	82.9
NC1=N[C@@](c2cc(NC(=O)c3cnc(OCc4cnco4)cn3)ccc2F)(C(F)F)[C@H]2C[C@H]2O1 [Example 171]	nM	81.1
COc1cc(C#N)cnc1C(=O)Nc1ccc(Cl)c([C@@]2(CF)N=C(N)O[C@@H]3C[C@@H]32)c1 [Example 397]	nM	81
NC1=N[C@@](c2cc(NC(=O)c3ccc(OC(F)F)cn3)ccc2F)(C(F)F)[C@H]2C[C@H]2O1 [Example 312]	nM	37.7

// batch mode: one IC50 value per listed entry
1. CC#Cc1cncc(-c2ccc(F)c([C@@]3(C(F)F)N=C(N)O[C@@H]4C[C@@H]43)c2)c1 [Example 429]
2. C[C@]1(c2nc(NC(=O)c3ncc(Cl)cc3Cl)ccc2F)N=C(N)O[C@@H]2C[C@@H]21 [Example 328]

## Output
1050
103

* * *

For each record, write down the corresponding pIC50.
target: Cathepsin D (Cat D) (Homo sapiens (Human)); assay: In vitro enzymatic Cathepsin D (Cat D) FRET assay; type: biochemical; details: read-out: CatD IC50
Sequence (P07339 65-412, species assumed): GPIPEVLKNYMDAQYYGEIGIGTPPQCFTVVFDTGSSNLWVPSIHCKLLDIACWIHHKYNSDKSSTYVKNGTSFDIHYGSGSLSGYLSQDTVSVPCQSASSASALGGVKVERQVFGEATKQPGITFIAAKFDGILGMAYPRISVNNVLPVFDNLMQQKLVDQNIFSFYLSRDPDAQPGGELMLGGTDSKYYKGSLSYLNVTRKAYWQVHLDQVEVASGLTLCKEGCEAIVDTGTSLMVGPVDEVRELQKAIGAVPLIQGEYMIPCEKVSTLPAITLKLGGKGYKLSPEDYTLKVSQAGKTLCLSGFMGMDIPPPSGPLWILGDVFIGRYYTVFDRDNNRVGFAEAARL
Give bare numbers, as −log10 of the molar value.

Sample records with pIC50:
compound	pIC50
COc1cnc(C(=O)Nc2ccc(Cl)c([C@@]3(C(F)F)N=C(N)O[C@@H]4C[C@@H]43)c2)nc1 [Example 104]	3.43
NC1=N[C@@](c2cc(N[C@@H]3CCc4cc(Br)ccc43)ccc2F)(C(F)F)[C@H]2C[C@H]2O1.NC1=N[C@@](c2cc(N[C@H]3CCc4cc(Br)ccc43)ccc2F)(C(F)F)[C@H]2C[C@H]2O1 (mixture of isomers) [Example 384]	4.08
COc1cnc(C(=O)Nc2ccc(F)c([C@@]3(C(F)F)N=C(N)O[C@@H]4C[C@@H]43)c2)nc1 [Example 103]	3.12
COc1cnc(C(=O)Nc2cc(F)c(Cl)c([C@]3(CF)N=C(N)O[C@H]4C[C@H]43)c2)cn1 [Example 155]	3.19
N#Cc1cnc(C(=O)Nc2ccc(F)c([C@]3(C(F)F)N=C(N)O[C@H]4C[C@H]43)c2)c(Cl)c1 (racemic) [Example 62]	2.96
COc1cc(Cl)cnc1C(=O)Nc1ccc(F)c([C@@]2(C(F)F)N=C(N)O[C@@H]3C[C@@H]32)c1 [Example 28]	3.04
Cc1c(C(=O)Nc2ccc(F)c([C@]3(C(F)F)N=C(N)O[C@H]4C[C@H]43)c2)nc2ccc(Cl)cn12 (racemic) [Example 61]	2.75
NC1=N[C@@](CF)(c2cc(NC(=O)c3ccc(Cl)cn3)cc(F)c2F)[C@@H]2C[C@@H]2O1 [Example 32]	2.99

// batch mode: one pIC50 value per listed entry
1. COCCC(=O)Nc1ccc(F)c([C@@]2(C(F)F)N=C(N)O[C@@H]3C[C@@H]32)c1 [Example 247]
2. NC1=N[C@](c2cc(NC(=O)c3ccc(Br)cn3)ccc2F)(C(F)F)[C@@H]2C[C@@H]2O1 [Example 296]
3. NC1=N[C@@](c2cccc(NC(=O)c3ccc(Cl)cn3)c2)(C(F)F)[C@H]2C[C@H]2O1 [Example 265]
4. Cc1cc(Cl)cnc1C(=O)Nc1ccc(F)c([C@@]2(C(F)F)N=C(N)O[C@@H]3C[C@@H]32)c1 [Example 43]
5. N#Cc1ccc(C(=O)Nc2cc(Cl)c(F)c([C@@]3(CF)N=C(N)O[C@@H]4C[C@@H]43)c2)nc1 [Example 88]

## Output
3.31
2.73
3.40
3.22
3.52

// batch mode: one pIC50 value per listed entry
1. Cc1cc(C#N)cnc1C(=O)Nc1cc(C)c(F)c([C@@]2(C(F)F)N=C(N)O[C@@H]3C[C@@H]32)c1 [Example 132]
2. Cc1cc(NC(=O)c2ccc(Cl)cn2)cc([C@@]2(C(F)F)N=C(N)O[C@@H]3C[C@@H]32)c1F [Example 123]
3. COc1cnc(C(=O)Nc2ccc(F)c([C@@]3(C(F)F)N=C(N)O[C@@H]4C[C@@H]43)c2)c(Cl)c1 [Example 70]
4. COc1cnc(C(=O)Nc2ccc(Cl)c([C@@]3(CF)N=C(N)O[C@@H]4C[C@@H]43)c2)c(C)n1 [Example 301]
5. NC1=N[C@@](c2cc(N[C@H]3CCc4cc(Br)cnc43)ccc2F)(C(F)F)[C@H]2C[C@H]2O1 (single isomer, unassigned) [Example 381]

## Output
3.14
3.59
3.42
3.15
4.08

// batch mode: one pIC50 value per listed entry
1. Cc1cc(Cl)cnc1C(=O)Nc1ccc(F)c([C@@]2(CF)N=C(N)O[C@@H]3C[C@@H]32)c1 [Example 198]
2. NC1=N[C@@](c2cc(NC(=O)C3=CCCCC3)ccc2F)(C(F)F)[C@H]2C[C@H]2O1 [Example 243]
3. Cc1cc(C(F)(F)F)cnc1C(=O)Nc1cc(F)c(F)c([C@@]2(CF)N=C(N)O[C@@H]3C[C@@H]32)c1 (stereo in doubt) [Example 52]

## Output
3.46
2.99
2.79

* * *

target: Cathepsin D (Cat D) (Homo sapiens (Human)); assay: In vitro enzymatic Cathepsin D (Cat D) FRET assay; type: biochemical; conditions: read-out: CatD IC50
Where a name gives a salt, the structure may show the parent alone.
measurement-kind: IC50 (µM)
Give bare numbers, in µM.

compound	unit-spec	test-result
N#Cc1ccc(C(=O)Nc2ccc(F)c([C@@]3(C(F)F)N=C(N)O[C@@H]4C[C@@H]43)c2)nc1	µM	698
NC1=N[C@@](c2cc(NC(=O)c3ncc(Cl)cc3F)ccc2F)(C(F)F)[C@H]2C[C@H]2O1	µM	1280
NC1=N[C@@](c2cc(NCC3(C(F)(F)F)CC3)ccc2F)(C(F)F)[C@H]2C[C@H]2O1	µM	52.9
NC1=N[C@@](c2cc(N[C@@H]3CCc4cc(Br)cnc43)ccc2F)(C(F)F)[C@H]2C[C@H]2O1 (single isomer, unassigned)	µM	336
NC1=N[C@](c2cccc(NC(=O)c3ccc(Cl)cn3)c2)(C(F)(F)F)[C@@H]2C[C@@H]2O1 (racemic)	µM	489
CNc1cnc(C(=O)Nc2ccc(F)c([C@@]3(C(F)F)N=C(N)O[C@@H]4C[C@@H]43)c2)nc1 [Example 439, dihydrochloride]	µM	490

// batch mode: one IC50 value per listed entry
1. Cc1cc(C(F)(F)F)cnc1C(=O)Nc1ccc(F)c([C@@]2(C(F)F)N=C(N)O[C@@H]3C[C@@H]32)c1
2. C#CCOc1cnc(C(=O)Nc2ccc(Cl)c([C@@]3(C(F)F)N=C(N)O[C@@H]4C[C@@H]43)c2)cn1
3. Cc1nc(OCC(F)(F)F)cnc1C(=O)Nc1ccc(F)c([C@@]2(C(F)F)N=C(N)O[C@@H]3C[C@@H]32)c1
4. NC1=N[C@@](c2cc(NC(=O)c3cnc(OCc4cocn4)cn3)ccc2Cl)(C(F)F)[C@H]2C[C@H]2O1
5. Cc1cc(NC(=O)c2ccc(Cl)cn2)cc([C@@]2(C(F)F)N=C(N)O[C@@H]3C[C@@H]32)c1F (racemic) [Example 30]
6. COCc1cc(Cl)cnc1C(=O)Nc1ccc(Cl)c([C@@]2(CF)N=C(N)O[C@@H]3C[C@@H]32)c1

## Output
159
51.1
351
592
469
1000

// batch mode: one IC50 value per listed entry
1. NC1=N[C@](CF)(c2cc(NC(=O)c3cnc(OCC(F)(F)F)cn3)cc(Cl)c2F)[C@H]2C[C@H]2O1
2. NC1=N[C@@](c2cc(NC(=O)c3ccc(Br)cn3)ccc2Cl)(C(F)F)[C@H]2C[C@H]2O1

## Output
[913, 459]
